For each record, write down the corresponding ID/g.
# Tested on: Rattus norvegicus
# Assay Text: Biodistribution in kidney of immature female rat after 1 hr administration of 3 micro Ci (111 kBq) in the absence of 60 microg estradiol
# Type: ADME, organism-based
# Condition Label: in vivo
The reply should contain only the number, in %.

Q) Give the measured ID/g of C[C@@H]1Cc2c(ccc(O)c2F)[C@H]2CC[C@@]3(C)[C@@H](CC[C@@]3(O)/C=C/I)[C@H]12 .
A) 1.41

Q) Entry C[C@]12CC[C@@H]3c4cc(F)c(O)cc4CC[C@H]3[C@@H]1CC[C@@]2(O)/C=C\I please
A) 0.88

Q) Try the molecule CO[C@H]1C[C@@]2(C)[C@@H](CC[C@@]2(O)/C=C/I)[C@@H]2CCc3cc(O)c(F)cc3[C@H]21
A) 1.44

Q) Param item: C[C@@H]1Cc2cc(O)c(F)cc2[C@H]2CC[C@@]3(C)[C@@H](CC[C@@]3(O)/C=C\I)[C@H]12
A) 1.11

Q) And then CO[C@H]1C[C@@]2(C)[C@@H](CC[C@@]2(O)/C=C\I)[C@@H]2CCc3c(ccc(O)c3F)[C@H]21 , what is it?
A) 1.64

Q) Could you do the same for C[C@]12CC[C@@H]3c4cc(F)c(O)cc4CC[C@H]3[C@@H]1CC[C@@]2(O)/C=C/I , please?
A) 0.87

Q) Also, C[C@]12CC[C@@H]3c4ccc(O)c(F)c4CC[C@H]3[C@@H]1CC[C@@]2(O)/C=C/I please.
A) 0.93

Q) Ok, now C[C@]12CC[C@@H]3c4ccc(O)c(F)c4CC[C@H]3[C@@H]1CC[C@@]2(O)/C=C\I
A) 1.87

Q) Would you kindly repeat that for C[C@@H]1Cc2c(ccc(O)c2F)[C@H]2CC[C@@]3(C)[C@@H](CC[C@@]3(O)/C=C\I)[C@H]12 ?
A) 1.07

Q) Can you check C[C@@H]1Cc2cc(O)c(F)cc2[C@H]2CC[C@@]3(C)[C@@H](CC[C@@]3(O)/C=C/I)[C@H]12 next?
A) 0.63

###

# System: Rattus norvegicus
# Assay Text: Biodistribution in fat of immature female rat after 1 hr administration of 3 micro Ci (111 kBq) in the absence of 60 microg estradiol
# Type: ADME, organism-based, Adipose tissue
# Condition Label: in vivo
Kindly apply the following: met if ID/g is less than 3%, not met in every other case.

Q) Lab note: confirm whether the reported ID/g for this compound is below 3%, equality not counting. compound: C[C@@H]1Cc2cc(O)c(F)cc2[C@H]2CC[C@@]3(C)[C@@H](CC[C@@]3(O)/C=C\I)[C@H]12
A) met

Q) Next up: CO[C@H]1C[C@@]2(C)[C@@H](CC[C@@]2(O)/C=C/I)[C@@H]2CCc3cc(O)c(F)cc3[C@H]21
A) not met

Q) Now try C[C@@H]1Cc2c(ccc(O)c2F)[C@H]2CC[C@@]3(C)[C@@H](CC[C@@]3(O)/C=C/I)[C@H]12 .
A) met

Q) Now this one: C[C@@H]1Cc2c(ccc(O)c2F)[C@H]2CC[C@@]3(C)[C@@H](CC[C@@]3(O)/C=C\I)[C@H]12
A) met

Q) Can you check CO[C@H]1C[C@@]2(C)[C@@H](CC[C@@]2(O)/C=C\I)[C@@H]2CCc3c(ccc(O)c3F)[C@H]21 next?
A) met

Q) Next: C[C@]12CC[C@@H]3c4ccc(O)c(F)c4CC[C@H]3[C@@H]1CC[C@@]2(O)/C=C\I
A) not met

Q) Proceed to C[C@@H]1Cc2cc(O)c(F)cc2[C@H]2CC[C@@]3(C)[C@@H](CC[C@@]3(O)/C=C/I)[C@H]12
A) met

Q) Please do the same for C[C@]12CC[C@@H]3c4cc(F)c(O)cc4CC[C@H]3[C@@H]1CC[C@@]2(O)/C=C/I as well.
A) not met

Q) Repeat for the following compound: C[C@]12CC[C@@H]3c4cc(F)c(O)cc4CC[C@H]3[C@@H]1CC[C@@]2(O)/C=C\I
A) met

###

# Experimental System: Estrogen receptor (Mus musculus) (UniProt O08537+P19785)
# Sequence (O08537 whole entry, looked up): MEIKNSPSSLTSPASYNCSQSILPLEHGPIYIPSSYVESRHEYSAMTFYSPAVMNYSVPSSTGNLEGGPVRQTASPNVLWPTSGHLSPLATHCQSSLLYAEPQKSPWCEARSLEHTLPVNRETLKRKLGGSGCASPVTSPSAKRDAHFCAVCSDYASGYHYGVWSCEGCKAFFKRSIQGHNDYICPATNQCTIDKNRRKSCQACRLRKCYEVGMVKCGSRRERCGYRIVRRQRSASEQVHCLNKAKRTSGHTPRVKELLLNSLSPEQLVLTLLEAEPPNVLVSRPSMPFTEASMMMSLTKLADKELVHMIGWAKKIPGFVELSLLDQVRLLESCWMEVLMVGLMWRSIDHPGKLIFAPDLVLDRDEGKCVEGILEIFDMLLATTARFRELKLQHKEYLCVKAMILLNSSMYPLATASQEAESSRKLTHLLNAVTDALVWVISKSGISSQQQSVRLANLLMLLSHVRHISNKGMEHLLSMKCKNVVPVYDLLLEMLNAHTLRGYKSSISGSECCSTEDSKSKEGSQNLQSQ
# Sequence (P19785 whole entry, looked up): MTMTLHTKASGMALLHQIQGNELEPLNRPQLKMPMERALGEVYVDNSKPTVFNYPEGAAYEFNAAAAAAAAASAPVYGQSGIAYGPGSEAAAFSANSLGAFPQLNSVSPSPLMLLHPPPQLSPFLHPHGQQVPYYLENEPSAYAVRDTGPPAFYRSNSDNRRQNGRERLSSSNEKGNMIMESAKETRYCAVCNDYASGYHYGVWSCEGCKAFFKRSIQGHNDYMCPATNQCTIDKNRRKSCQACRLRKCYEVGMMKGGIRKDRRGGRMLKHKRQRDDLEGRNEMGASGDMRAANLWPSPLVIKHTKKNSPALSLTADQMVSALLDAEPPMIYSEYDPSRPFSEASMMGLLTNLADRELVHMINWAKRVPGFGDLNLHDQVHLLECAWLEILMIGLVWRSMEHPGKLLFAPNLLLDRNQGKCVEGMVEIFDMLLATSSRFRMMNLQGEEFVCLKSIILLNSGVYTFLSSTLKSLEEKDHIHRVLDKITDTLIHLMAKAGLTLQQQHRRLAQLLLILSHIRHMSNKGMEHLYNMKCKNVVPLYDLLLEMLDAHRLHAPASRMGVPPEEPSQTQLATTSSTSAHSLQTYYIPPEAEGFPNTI
# Assay Text: Relative binding affinity (RBA) against murine cytoplasmic estrogen receptor incubated at 0-4 degree Celsius for 18 hours
# Format: protein assay
Returns: string. Value is met if measured RBA is below 30, and not met if it is greater than or equal to it.

Q) Hello, I'm reviewing records and need to know if RBA of CO[C@H]1C[C@@]2(C)[C@@H](CC[C@@]2(O)/C=C\I)[C@@H]2CCc3cc(O)ccc3[C@H]21 is below 30. Could you check?
A) not met

Q) Would you mind doing C[C@@H]1Cc2cc(O)ccc2[C@H]2CC[C@@]3(C)[C@@H](CC[C@@]3(O)/C=C/I)[C@H]12 as well?
A) not met

Q) How about C[C@@H]1Cc2cc(O)c(F)cc2[C@H]2CC[C@@]3(C)[C@@H](CC[C@@]3(O)/C=C/I)[C@H]12 ?
A) met

Q) Same question for CO[C@H]1C[C@@]2(C)[C@@H](CC[C@@]2(O)/C=C/I)[C@@H]2CCc3cc(O)c(F)cc3[C@H]21 please.
A) met

Q) Again, but for C=C[C@]1(O)CC[C@H]2[C@@H]3CCc4cc(O)c(F)cc4[C@H]3CC[C@@]21C
A) not met

Q) Proceed to C[C@]12CC[C@@H]3c4ccc(O)c(F)c4CC[C@H]3[C@@H]1CC[C@@]2(O)/C=C/I
A) not met

Q) Next: C[C@]12CC[C@@H]3c4ccc(O)cc4CC[C@H]3[C@@H]1CC[C@@]2(O)/C=C\I
A) not met

Q) Moving on to the next compound: C[C@@H]1Cc2c(ccc(O)c2F)[C@H]2CC[C@@]3(C)[C@@H](CC[C@@]3(O)/C=C/I)[C@H]12
A) not met

Q) Now try C[C@]12CC[C@@H]3c4ccc(O)cc4CC[C@H]3[C@@H]1CC[C@@]2(O)/C=C/I .
A) not met

Q) Cool, now CO[C@H]1C[C@@]2(C)[C@@H](CC[C@@]2(O)/C=C/I)[C@@H]2CCc3c(ccc(O)c3F)[C@H]21
A) met

###

Field: ID/g. Provide a value for each of the compounds that follow.
# System: Rattus norvegicus
# Assay Text: Biodistribution in liver of immature female rat after 1 hr administration of 3 micro Ci (111 kBq) in the absence of 60 microg estradiol
# Format: ADME, organism-based
# Condition Label: in vivo

Q) Please look up its ID/g: C[C@@H]1Cc2c(ccc(O)c2F)[C@H]2CC[C@@]3(C)[C@@H](CC[C@@]3(O)/C=C\I)[C@H]12
A) 1.35%

Q) // query: C[C@@H]1Cc2c(ccc(O)c2F)[C@H]2CC[C@@]3(C)[C@@H](CC[C@@]3(O)/C=C/I)[C@H]12
A) 4.36%

Q) Check C[C@]12CC[C@@H]3c4ccc(O)c(F)c4CC[C@H]3[C@@H]1CC[C@@]2(O)/C=C\I too.
A) 3.49%
